target: Voltage-gated potassium channel subunit beta-2 (Rattus norvegicus) (UniProt P62483); experiment: KvBeta positive modulators, primary screen, biochemical, NADPH fluorescence (AID 623); conditions: Recombinant KvBeta, NADPH fluorescence decrease slope, 10 min; at 10 µM; hits give low values;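 note: fluorescence intensity change per second fitted from 20 to 320 s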
Sequence (P62483 whole entry, looked up): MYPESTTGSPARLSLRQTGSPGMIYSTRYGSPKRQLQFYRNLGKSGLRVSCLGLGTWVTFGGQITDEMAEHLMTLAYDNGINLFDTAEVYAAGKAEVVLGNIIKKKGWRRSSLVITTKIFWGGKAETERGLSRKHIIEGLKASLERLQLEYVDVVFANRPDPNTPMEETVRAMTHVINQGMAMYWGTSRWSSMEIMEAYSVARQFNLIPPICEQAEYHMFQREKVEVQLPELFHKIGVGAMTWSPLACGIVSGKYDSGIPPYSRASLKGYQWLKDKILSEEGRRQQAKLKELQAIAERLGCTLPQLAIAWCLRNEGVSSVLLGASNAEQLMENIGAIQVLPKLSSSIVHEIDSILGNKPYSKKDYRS
readout label: NADPH fluorescence slope
One number for each entry.

O=C(CCN1C(=O)C2C3C=CC(C3)C2C1=O)NC1CCCc2ccccc21 (configuration not stated) ... -1.7e-05
COc1ccc(CNC(=O)c2cnc3n(c2=O)CCS3)cc1 ... 4e-05
CC1CCC(NC(=O)C2(C)CCC(=O)N2Cc2cccnc2)CC1 (configuration not stated) ... -1.4e-05
CCOc1ccc2nc(NC(NC(=O)CC)(C(=O)OC)C(F)(F)F)sc2c1 (configuration not stated) ... -8.8e-05
COC(=O)c1ccccc1NC(=O)COc1ccc(S(=O)(=O)N2CCCC2)cc1C ... 4.1e-06

Consider the following items and state reported NADPH fluorescence slope for each.
1. CCOC(=O)/C(C#N)=C1/SC(CCO)C(=O)N1c1ccccc1 (configuration not stated)
2. Clc1ccc(-n2ncc3c(N4CCCC4)ncnc32)cc1

1: -2e-05; 2: -5e-05
